system: SNB-19 CNS; assay: NCI tumour cell line growth inhibition, 48 h
measurementKind: GI50

Item CN(C)S(=O)(=O)c1ccc(NC(=O)COC(=O)c2ccc(S(=O)(=O)N3CCCCC3)cc2)cc1 has what recorded GI50?
> 100 µM

Query COC(=O)/C=C/C=C(c1ccccc1)c1ccccc1 next
9.31 µM

Cool, now Oc1ccc(-c2nnc3sc(-c4ccc(F)cc4)nn23)cc1
21.3 µM

Follow-up entry: C=C1C(=O)O[C@H]2[C@H]1CC/C(COC(=O)NCc1ccccc1OC)=C\CC[C@@]1(C)O[C@@H]21
1.57 µM

Next compound: COc1ccc2nc3cc([N+](=O)[O-])ccc3c(NCCCCCN(C)C)c2c1
0.301 µM

C[C@H](Nc1ncnc2nc[nH]c12)c1cc2cccc(Cl)c2c(=O)n1-c1ccccc1 ?
17.7 µM

From: PubChem BioAssay (NCI)
